# Test system: Glucocorticoid receptor (Homo sapiens)
# Test: Transrepression activity at glucocorticoid receptorin human HeLa cells assessed as inhibition of TPA-induced collagenase promoter activity by luciferase reporter gene assay
# Format: cell-based
Here, each record is paired with measured IC50 data.
Dear colleague, please return just the value in nM, with no unit written.

Compound | Units | IC50
CC[C@@H]1C[C@](O)(C(F)(F)F)[C@@H](Nc2cc(F)cc3nc(C)ncc23)c2ccc(F)c(O)c21 | nM | 6.31
Cc1ncc2c(N[C@H]3c4ccc(F)c(O)c4C(C)(C)C[C@]3(O)C(F)(F)F)cc(F)cc2n1 | nM | 39.8
CC1(C)C[C@](O)(C(F)(F)F)[C@@H](Nc2cccc3c(=O)[nH]ccc23)c2ccc(F)c(O)c21 (racemic) | nM | 6.31
CC[C@@H]1C[C@](O)(C(F)(F)F)[C@@H](Nc2cccc3nc(C)ccc23)c2ccc(F)c(O)c21 | nM | 5.01
CC1(C)C[C@](O)(C(F)(F)F)[C@@H](Nc2cccc3[nH]c(=O)ccc23)c2ccc(F)c(O)c21 | nM | 15.8

In: Fill blank: measured IC50 of the compound Cc1ccc2c(N[C@H]3c4ccc(F)c(O)c4[C@H](C)C[C@]3(O)C(F)(F)F)cccc2n1 is ____.
Out: 20

In: Query C=C(C)C[C@@](O)([C@@H](Nc1cccc2c(=O)[nH]ccc12)c1cc(Br)ccc1O)C(F)(F)F (racemic) next
Out: 20

In: Query CC(C)(CC(O)(CNc1cccc2c(=O)[nH]ccc12)C(F)(F)F)c1cccc(F)c1O (stereo not drawn) next
Out: 3.98

* * *

Here, each record is paired with measured pIC50 data.
# Test system: Glucocorticoid receptor (Homo sapiens, UniProt P04150)
# Sequence (P04150 whole entry): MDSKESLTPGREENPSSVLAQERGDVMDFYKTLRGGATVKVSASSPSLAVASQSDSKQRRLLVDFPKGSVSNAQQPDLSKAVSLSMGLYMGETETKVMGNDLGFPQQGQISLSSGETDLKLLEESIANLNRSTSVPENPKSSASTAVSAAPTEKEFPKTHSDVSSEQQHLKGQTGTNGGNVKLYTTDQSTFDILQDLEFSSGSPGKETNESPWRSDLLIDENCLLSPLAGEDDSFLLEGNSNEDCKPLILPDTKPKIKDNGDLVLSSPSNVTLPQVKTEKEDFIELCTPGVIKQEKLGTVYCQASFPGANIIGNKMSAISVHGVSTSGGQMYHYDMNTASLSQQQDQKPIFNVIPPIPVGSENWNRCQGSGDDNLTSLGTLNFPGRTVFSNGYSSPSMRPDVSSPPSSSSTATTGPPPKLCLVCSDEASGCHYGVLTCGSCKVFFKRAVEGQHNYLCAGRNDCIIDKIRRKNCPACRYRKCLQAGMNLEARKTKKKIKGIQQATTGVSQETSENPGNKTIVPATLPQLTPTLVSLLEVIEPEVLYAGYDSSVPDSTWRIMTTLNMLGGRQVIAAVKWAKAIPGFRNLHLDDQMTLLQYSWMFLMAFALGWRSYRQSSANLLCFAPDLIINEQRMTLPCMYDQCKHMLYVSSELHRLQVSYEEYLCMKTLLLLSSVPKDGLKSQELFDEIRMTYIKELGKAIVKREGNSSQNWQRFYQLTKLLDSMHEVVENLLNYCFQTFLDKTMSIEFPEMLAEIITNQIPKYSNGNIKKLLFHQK
# Test: Transrepression activity at glucocorticoid receptor in human THP1 cells assessed as receptor-mediated anti-inflammatory activity by measuring inhibition of LPS-induced IL-8 production
# Format: cell-based
Value format note: pIC50 is -log10 of concentration (mol/L); just state the number.

Worked set:
Compound | Property label | Numeric result
CC(C)(CC(O)(CNc1cccc2c(=O)[nH]ccc12)C(F)(F)F)c1cccc(F)c1O (centres undefined) | pIC50 | 8.40
C=C(C)C[C@@](O)([C@@H](Nc1cccc2c(=O)[nH]ccc12)c1cc(Br)ccc1O)C(F)(F)F (racemic) | pIC50 | 7.70
Cc1ncc2c(N[C@H]3c4ccc(F)c(O)c4C(C)(C)C[C@]3(O)C(F)(F)F)cc(F)cc2n1 | pIC50 | 7.40

Let us move to another entry and its pIC50.
In: Fill blank: measured pIC50 of the compound CC[C@@H]1C[C@](O)(C(F)(F)F)[C@@H](Nc2cccc3nc(C)ccc23)c2ccc(F)c(O)c21 is ____.
Out: 8.30

* * *

# Test system: UniProt P04150
# Test: Transactivation activity at glucocorticoid receptor in human HeLa cells assessed as induction of MMTV promoter activity by luciferase reporter gene assay
# Type: cell-based
Property label: pEC50
Response field accepts a number only; no unit should be typed.

Compound | Numeric result
Cc1ccc2c(NCC(O)(CC(C)(C)c3cc(F)ccc3O)C(F)(F)F)cccc2n1 (centres undefined) | 7.9
Cc1ncc2c(N[C@H]3c4ccc(F)c(O)c4C(C)(C)C[C@]3(O)C(F)(F)F)cc(F)cc2n1 | 6.8
CC[C@@H]1C[C@](O)(C(F)(F)F)[C@@H](Nc2cccc3nc(C)ccc23)c2ccc(F)c(O)c21 | 7.9
C=C(C)C[C@@](O)([C@@H](Nc1cccc2c(=O)[nH]ccc12)c1cc(Br)ccc1O)C(F)(F)F (racemic) | 6.8
CC[C@@H]1C[C@](O)(C(F)(F)F)[C@@H](Nc2cc(F)cc3nc(C)ncc23)c2ccc(F)c(O)c21 | 7.6
CC1(C)C[C@](O)(C(F)(F)F)[C@@H](Nc2cccc3c(=O)[nH]ccc23)c2ccc(F)c(O)c21 (racemic) | 7.9
Cc1ccc2c(N[C@H]3c4ccc(F)c(O)c4[C@H](C)C[C@]3(O)C(F)(F)F)cccc2n1 | 7.4
CC1(C)C[C@](O)(C(F)(F)F)[C@@H](Nc2cccc3[nH]c(=O)ccc23)c2ccc(F)c(O)c21 | 7.6

Let us move to another entry and its pEC50.
In: Fill blank: measured pEC50 of the compound CC(C)(CC(O)(CNc1cccc2c(=O)[nH]ccc12)C(F)(F)F)c1cccc(F)c1O (centres undefined) is ____.
Out: 7.6

* * *

# Test: Half life in rat at 1.25 mg/kg, iv administered as bolus dose
# Format: ADME, organism-based
# Condition summary: in vivo
Property label: half-life (h)
Dear colleague, please return just the value in h, with no unit written.

In: Fill blank: measured half-life of the compound CC[C@@H]1C[C@](O)(C(F)(F)F)[C@@H](Nc2cc(F)cc3nc(C)ncc23)c2ccc(F)c(O)c21 is ____.
Out: 5.8

* * *

# Test: Blood clearance in rat at 1.25 mg/kg, iv administered as bolus dose
# Assay type: ADME, organism-based
# Condition summary: whole blood
Property label: clearance (mL/min/kg)
Dear colleague, please return just the value in mL/min/kg, with no unit written.

In: Fill blank: measured clearance of the compound CC[C@@H]1C[C@](O)(C(F)(F)F)[C@@H](Nc2cc(F)cc3nc(C)ncc23)c2ccc(F)c(O)c21 is ____.
Out: 26.7

* * *

# Test system: Androgen receptor (Homo sapiens, UniProt P10275)
# Sequence (P10275 whole entry): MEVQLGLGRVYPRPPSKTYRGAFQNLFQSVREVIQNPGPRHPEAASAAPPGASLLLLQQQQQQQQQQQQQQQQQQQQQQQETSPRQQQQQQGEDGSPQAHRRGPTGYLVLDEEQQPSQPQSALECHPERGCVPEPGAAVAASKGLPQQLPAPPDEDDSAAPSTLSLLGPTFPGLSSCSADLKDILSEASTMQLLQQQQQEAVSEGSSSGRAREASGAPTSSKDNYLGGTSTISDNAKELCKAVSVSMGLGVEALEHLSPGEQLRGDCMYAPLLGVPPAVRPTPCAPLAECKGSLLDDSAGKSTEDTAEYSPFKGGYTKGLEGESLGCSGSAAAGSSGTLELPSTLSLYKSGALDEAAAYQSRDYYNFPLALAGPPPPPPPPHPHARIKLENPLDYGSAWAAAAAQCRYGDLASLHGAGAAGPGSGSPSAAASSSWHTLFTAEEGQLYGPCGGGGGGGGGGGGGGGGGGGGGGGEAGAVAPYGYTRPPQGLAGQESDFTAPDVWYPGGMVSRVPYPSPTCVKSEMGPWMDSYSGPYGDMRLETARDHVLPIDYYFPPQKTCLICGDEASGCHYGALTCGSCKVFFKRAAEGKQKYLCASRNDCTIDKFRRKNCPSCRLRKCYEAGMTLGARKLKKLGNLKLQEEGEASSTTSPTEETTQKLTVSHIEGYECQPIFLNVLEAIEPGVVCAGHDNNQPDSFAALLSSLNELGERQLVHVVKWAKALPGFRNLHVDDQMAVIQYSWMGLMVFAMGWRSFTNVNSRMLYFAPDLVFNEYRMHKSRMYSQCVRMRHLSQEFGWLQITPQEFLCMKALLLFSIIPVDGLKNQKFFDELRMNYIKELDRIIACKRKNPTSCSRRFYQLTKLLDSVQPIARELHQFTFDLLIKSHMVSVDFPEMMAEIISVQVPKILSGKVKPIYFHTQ
# Test: Binding affinity to recombinant human androgen receptor expressed in baculovirus infected sf9 cells
Here, each record is paired with measured IC50 data.

Worked set:
Compound | IC50
Cc1ncc2c(N[C@H]3c4ccc(F)c(O)c4C(C)(C)C[C@]3(O)C(F)(F)F)cc(F)cc2n1 | > 1000 nM
Cc1ccc2c(N[C@H]3c4ccc(F)c(O)c4[C@H](C)C[C@]3(O)C(F)(F)F)cccc2n1 | > 1000 nM
C=C(C)C[C@@](O)([C@@H](Nc1cccc2c(=O)[nH]ccc12)c1cc(Br)ccc1O)C(F)(F)F (racemic) | > 1000 nM
CC1(C)C[C@](O)(C(F)(F)F)[C@@H](Nc2cccc3c(=O)[nH]ccc23)c2ccc(F)c(O)c21 (racemic) | 316 nM
CC[C@@H]1C[C@](O)(C(F)(F)F)[C@@H](Nc2cc(F)cc3nc(C)ncc23)c2ccc(F)c(O)c21 | > 1000 nM
CCSC[C@@](O)([C@@H](Nc1cccc2nc(C)ccc12)c1ccc(OC)c(F)c1Cl)C(F)(F)F | > 1000 nM
CC(C)(CC(O)(CNc1cccc2c(=O)[nH]ccc12)C(F)(F)F)c1cccc(F)c1O (stereo not given) | > 1000 nM
CC[C@@H]1C[C@](O)(C(F)(F)F)[C@@H](Nc2cccc3nc(C)ccc23)c2ccc(F)c(O)c21 | > 1000 nM
CC[C@@H]1C[C@](O)(C(F)(F)F)[C@@H](Nc2cccc3[nH]c(=O)ccc23)c2cc(F)c(F)c(O)c21 | > 1000 nM

Let us move to another entry and its IC50.
In: Fill blank: measured IC50 of the compound CC1(C)C[C@](O)(C(F)(F)F)[C@@H](Nc2cccc3[nH]c(=O)ccc23)c2ccc(F)c(O)c21 is ____.
Out: 794 nM

* * *

# Test system: Progesterone receptor (Homo sapiens)
# Sequence (P06401 whole entry): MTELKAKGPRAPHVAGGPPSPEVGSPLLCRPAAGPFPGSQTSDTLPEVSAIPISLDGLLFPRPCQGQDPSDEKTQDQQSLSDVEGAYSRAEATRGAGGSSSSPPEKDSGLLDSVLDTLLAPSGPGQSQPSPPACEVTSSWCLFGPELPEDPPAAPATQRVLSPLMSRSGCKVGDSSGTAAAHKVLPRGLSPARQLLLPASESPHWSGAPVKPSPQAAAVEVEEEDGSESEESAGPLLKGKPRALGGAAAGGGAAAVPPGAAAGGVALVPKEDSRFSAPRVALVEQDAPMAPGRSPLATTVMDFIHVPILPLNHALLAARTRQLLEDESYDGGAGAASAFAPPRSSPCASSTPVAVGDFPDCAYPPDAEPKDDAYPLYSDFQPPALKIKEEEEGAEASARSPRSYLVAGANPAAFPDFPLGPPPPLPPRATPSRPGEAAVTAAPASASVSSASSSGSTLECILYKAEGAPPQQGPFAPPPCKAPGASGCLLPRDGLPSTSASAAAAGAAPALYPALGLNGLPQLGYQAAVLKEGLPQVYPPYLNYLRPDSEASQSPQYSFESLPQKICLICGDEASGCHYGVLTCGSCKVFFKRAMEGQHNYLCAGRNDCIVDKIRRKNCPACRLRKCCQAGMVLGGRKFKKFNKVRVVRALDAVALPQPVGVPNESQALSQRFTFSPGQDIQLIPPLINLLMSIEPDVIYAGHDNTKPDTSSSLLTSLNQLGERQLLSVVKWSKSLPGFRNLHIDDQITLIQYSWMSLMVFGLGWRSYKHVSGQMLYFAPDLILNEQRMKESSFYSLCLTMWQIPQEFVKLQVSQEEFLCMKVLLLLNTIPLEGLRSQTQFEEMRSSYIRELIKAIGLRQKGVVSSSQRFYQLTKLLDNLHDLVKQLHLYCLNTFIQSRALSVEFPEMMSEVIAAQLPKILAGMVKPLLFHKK
# Test: Binding affinity to recombinant human progesterone receptor expressed in baculovirus infected sf9 cells
Here, each record is paired with measured pIC50 data.
Value format note: pIC50 is -log10 of concentration (mol/L); just state the number.

Worked set:
Compound | pIC50
CC1(C)C[C@](O)(C(F)(F)F)[C@@H](Nc2cccc3[nH]c(=O)ccc23)c2ccc(F)c(O)c21 | 6.10
C=C(C)C[C@@](O)([C@@H](Nc1cccc2c(=O)[nH]ccc12)c1cc(Br)ccc1O)C(F)(F)F (racemic) | 6.20

In: Fill blank: measured pIC50 of the compound CC(C)(CC(O)(CNc1cccc2c(=O)[nH]ccc12)C(F)(F)F)c1cccc(F)c1O (stereo unspecified) is ____.
Out: 6.70

In: Query CC1(C)C[C@](O)(C(F)(F)F)[C@@H](Nc2cccc3c(=O)[nH]ccc23)c2ccc(F)c(O)c21 (racemic) next
Out: 6.10

In: Query CCSC[C@@](O)([C@@H](Nc1cccc2nc(C)ccc12)c1ccc(OC)c(F)c1Cl)C(F)(F)F next
Out: 6.10

In: Query CC[C@@H]1C[C@](O)(C(F)(F)F)[C@@H](Nc2cccc3nc(C)ccc23)c2ccc(F)c(O)c21 next
Out: 6.10

* * *

Here, each record is paired with measured IC50 data.
# Test system: Glucocorticoid receptor (Homo sapiens, UniProt P04150)
# Test: Binding affinity to recombinant human glucocorticoid receptor expressed in baculovirus infected sf9 cells
Please state the value followed by its unit.

Worked set:
Molecule | IC50
CC1(C)C[C@](O)(C(F)(F)F)[C@@H](Nc2cccc3[nH]c(=O)ccc23)c2ccc(F)c(O)c21 | 15.8 nM
Cc1ccc2c(N[C@H]3c4ccc(F)c(O)c4[C@H](C)C[C@]3(O)C(F)(F)F)cccc2n1 | 15.8 nM
C=C(C)C[C@@](O)([C@@H](Nc1cccc2c(=O)[nH]ccc12)c1cc(Br)ccc1O)C(F)(F)F (racemic) | 63.1 nM
CC(C)(CC(O)(CNc1cccc2c(=O)[nH]ccc12)C(F)(F)F)c1cccc(F)c1O (stereo not drawn) | 2.51 nM
Cc1ncc2c(N[C@H]3c4ccc(F)c(O)c4C(C)(C)C[C@]3(O)C(F)(F)F)cc(F)cc2n1 | 126 nM
CC1(C)C[C@](O)(C(F)(F)F)[C@@H](Nc2cccc3c(=O)[nH]ccc23)c2ccc(F)c(O)c21 (racemic) | 20 nM
CC[C@@H]1C[C@](O)(C(F)(F)F)[C@@H](Nc2cccc3nc(C)ccc23)c2ccc(F)c(O)c21 | 12.6 nM

Let us move to another entry and its IC50.
In: Please state recorded IC50 (tested on Glucocorticoid receptor (Homo sapiens, UniProt P04150)) of CC[C@@H]1C[C@](O)(C(F)(F)F)[C@@H](Nc2cc(F)cc3nc(C)ncc23)c2ccc(F)c(O)c21
Out: 126 nM
